Values were extracted from ChEMBL document CHEMBL1132709.

# Tested on: P338
# assay summary: In vitro concentration required to inhibit the growth of […] murine leukemia cells by 50%
# Assay type: functional, cell-based
# cond: Mus musculus
endpoint: log10 of IC50 (log10 of the value in ng/mL)
Log10 applied to IC50; unit prior to transform: ng/mL.

Measured log10 of IC50, COC(=O)c1[nH]c2c(c1C(=O)OC)[C@@]13C[C@@H]1CN(C(=O)c1cc4cc(NC(=O)c5cc6ccccc6[nH]5)ccc4[nH]1)C3=CC2=O (racemic) : -0.51

So for COC(=O)c1[nH]c2c(c1C(=O)OC)[C@@]13C[C@@H]1CN(C(=O)c1cc4cc(NC(=O)c5cc6ccccc6o5)ccc4[nH]1)C3=CC2=O (racemic) , the logged log10 of IC50 turned out to be -0.18

Reported log10 of IC50 for Cc1c[nH]c2c1[C@@]13C[C@@H]1CN(C(=O)c1cc4cc(NC(=O)c5cc6ccccc6[nH]5)ccc4[nH]1)C3=CC2=O (racemic) was -1.55

What the record says about COC(=O)c1c(C(F)(F)F)[nH]c2c1[C@@]13C[C@@H]1CN(C(=O)c1cc4cc(NC(=O)c5cc6ccccc6o5)ccc4[nH]1)C3=CC2=O (racemic) : log10 of IC50 is -0.28

So, COC(=O)c1c(C)[nH]c2c1[C@@]13C[C@@H]1CN(C(=O)c1cc4cc(OC)c(OC)c(OC)c4[nH]1)C3=CC2=O (racemic) ? Its log10 of IC50 was -0.47

The value of log10 of IC50 measured for the compound COC(=O)c1c(C(F)(F)F)[nH]c2c1[C@@]13C[C@@H]1CN(C(=O)c1cc4cc(NC(=O)c5cc6ccccc6[nH]5)ccc4[nH]1)C3=CC2=O (racemic) turned out to be -0.07

Quick note, log10 of IC50 for COC(=O)c1c(C(F)(F)F)[nH]c2c1[C@@]13C[C@@H]1CN(C(=O)c1cc4cc(OC)c(OC)c(OC)c4[nH]1)C3=CC2=O (racemic) landed at -0.62

In plain terms, COC(=O)c1c(C(F)(F)F)[nH]c2c1[C@@]13C[C@@H]1CN(C(=O)c1cc4cc(OC)ccc4[nH]1)C3=CC2=O (racemic) has a documented log10 of IC50 of -0.64

----------
# System: Mus musculus
# assay summary: In vivo antitumor activity (0.5 mg/Kg) is the measure of tumor growth inhibition of colon 26 murine […] cells.
# Type: functional
Hi, to clarify the labels: yes (1) covers TGI from 90% upward, no (0) covers anything below 90%.

Test whether the molecule COC(=O)c1c(C(F)(F)F)[nH]c2c(O)cc3c(c12)[C@H](CCl)CN3C(=O)c1cc2cc(NC(=O)c3ccc4ccccc4c3)ccc2[nH]1 (racemic) records TGI of 90% or higher.
no (0)

Does the reported TGI for COC(=O)c1c(C(F)(F)F)[nH]c2c(O)cc3c(c12)[C@H](CCl)CN3C(=O)c1cc2cc(NC(=O)c3cc4ccccc4o3)ccc2[nH]1 (racemic) fall at or above the 90% mark?
no (0)

Reported TGI reaches at least 90% for COC(=O)c1c(C(F)(F)F)[nH]c2c(O)cc3c(c12)[C@H](CCl)CN3C(=O)c1cc2cc(NC(=O)c3cnc4ccccc4c3)ccc2[nH]1 (racemic) ?
no (0)

Evaluate COC(=O)c1c(C(F)(F)F)[nH]c2c(O)cc3c(c12)[C@H](CCl)CN3C(=O)c1cc2cc(NC(=O)c3cc4ccc(OC)cc4o3)ccc2[nH]1 (racemic) : TGI at minimum 90%?
yes (1)

Check this molecule for TGI at or above 90%: COC(=O)c1c(C(F)(F)F)[nH]c2c(O)cc3c(c12)[C@H](CCl)CN3C(=O)c1cc2cc(NC(=O)c3cc4c(OC)cccc4o3)ccc2[nH]1 (racemic)
no (0)

API: above_or_equal(metric=TGI, cutoff=90%) for item COC(=O)c1c(C(F)(F)F)[nH]c2c(O)cc3c(c12)[C@H](CCl)CN3C(=O)c1cc2cc(NC(=O)c3cc4cc(OC)ccc4o3)ccc2[nH]1 (racemic)
yes (1)

Please indicate if the recorded TGI for COC(=O)c1c(C(F)(F)F)[nH]c2c(O)cc3c(c12)[C@H](CCl)CN3C(=O)c1cc2cc(NC(=O)c3cc4c(OC)c(OC)c(OC)cc4[nH]3)ccc2[nH]1 meets or exceeds 90%.
yes (1)

Tell me whether TGI is at least 90% here: COC(=O)c1c(C(F)(F)F)[nH]c2c(O)cc3c(c12)[C@H](CCl)CN3C(=O)c1cc2cc(NC(=O)c3cc4cccc(OC)c4o3)ccc2[nH]1 (racemic)
yes (1)

Quick check, TGI >= 90%? COC(=O)c1c(C(F)(F)F)[nH]c2c(O)cc3c(c12)[C@H](CCl)CN3C(=O)c1cc2cc(OC)c(OC)c(OC)c2o1 (racemic)
no (0)
